Assay: Stability of the compound in human liver microsomes assessed as parent compound remaining at 0.5 uM measured after 10 mins in presence of NADPH by LC-MS/MS analysis
Format: ADME, Microsome
Details: read-out: Stability
Value type: remaining at 10 min, 0.5 µM (%)

COc1ccc(-c2cccc(-c3cc4nc(C)c([C@H](OC(C)(C)C)C(=O)O)c(-c5cc(F)c6c(c5C)CCCO6)n4n3)c2)cn1 = 73
Cc1ccc(-c2cc3nc(C)c(C(OC(C)(C)C)C(=O)O)c(-c4cc(F)c5c(c4C)CCCO5)n3n2)cc1 (configuration not stated) = 95
Cc1ccccc1-c1cccc(-c2cc3nc(C)c([C@H](OC(C)(C)C)C(=O)O)c(-c4cc(F)c5c(c4C)CCCO5)n3n2)c1 = 95
Cc1nc2cc(-c3cccc(OCc4ccccc4)c3)nn2c(N2CCC(C)(C)CC2)c1C(OC(C)(C)C)C(=O)O (configuration not stated) = 100
Cc1nc2cc(-c3cccc(-c4ccccc4)c3)nn2c(-c2cc(F)c3c(c2C)CCCO3)c1[C@H](OC(C)(C)C)C(=O)O = 78
Cc1nc2cc(-c3cccc(Oc4ccccc4)c3)nn2c(-c2cc(F)c3c(c2C)CCCO3)c1C(OC(C)(C)C)C(=O)O (configuration not stated) = 100
Cc1nc2cc(-c3ccc(OCc4ccccc4)cc3)nn2c(-c2cc(F)c3c(c2C)CCCO3)c1C(OC(C)(C)C)C(=O)O (configuration not stated) = 84

###

Assay: Stability of the compound in human liver microsomes assessed as parent compound remaining at 0.5 uM measured after 10 mins in presence of NADPH by LC-MS/MS analysis
Format: ADME, Microsome
Conditions: read-out: Stability
Value type: remaining at 10 min, 0.5 µM (%)

Cc1nc2cc(-c3ccccc3)nn2c(N2CCC(C)(C)CC2)c1C(OC(C)(C)C)C(=O)O (stereo not drawn) = 100
Cc1nc2cc(-c3cccc(-c4ccccc4)c3)nn2c(-c2cc(F)c3c(c2C)CCCO3)c1C(OC(C)(C)C)C(=O)O (racemic) = 86
COc1ccccc1-c1cccc(-c2cc3nc(C)c([C@H](OC(C)(C)C)C(=O)O)c(-c4cc(F)c5c(c4C)CCCO5)n3n2)c1 = 99

###

Experiment: Cytotoxicity against human MT2 cells measured after 4 days by XTT assay
Format: cell-based
Value type: CC50 at 96 h (µM)
Field: numeric (µM). Do not append units.

The examples below pair each entry with its known result.
CC(C)(C)OC(C(=O)O)c1ccccc1-c1ccccc1 (centres undefined) = 127
Cc1nc2cc(-c3cccc(-c4ccncc4)c3)nn2c(-c2cc(F)c3c(c2C)CCCO3)c1[C@H](OC(C)(C)C)C(=O)O = 13.2
COc1ccccc1-c1cccc(-c2cc3nc(C)c([C@H](OC(C)(C)C)C(=O)O)c(-c4cc(F)c5c(c4C)CCCO5)n3n2)c1 = 23.5
Cc1nc2cc(-c3cccc(-c4ccccc4F)c3)nn2c(-c2cc(F)c3c(c2C)CCCO3)c1[C@H](OC(C)(C)C)C(=O)O = 19.1
Cc1ccc(-c2c(C(OC(C)(C)C)C(=O)O)c(C)nc3cc(-c4ccccc4)nn23)cc1 (centres undefined) = 77
Cc1nc2cc(-c3cccc(-c4ccccc4)c3)nn2c(-c2cc(F)c3c(c2C)CCCO3)c1[C@H](OC(C)(C)C)C(=O)O = 6.59

Please list CC50 at 96 h recorded for the molecule `Cc1ccccc1-c1cccc(-c2cc3nc(C)c([C@H](OC(C)(C)C)C(=O)O)c(-c4cc(F)c5c(c4C)CCCO5)n3n2)c1`
28.2

Please list CC50 at 96 h recorded for the molecule `Cc1nc2ccccc2c(-c2ccc3c4c(ccnc24)CCO3)c1[C@H](OC(C)(C)C)C(=O)O`
3340

###

Test: Permeability of the compound in pH 7.4 buffer at 100 uM measured after 4 hrs by sandwich-PAMPA
Assay type: ADME
Settings: read-out: permeability
Value type: Papp at 4 h, 100 µM (×10⁻⁶ cm/s)

The examples below pair each entry with its known result.
Cc1nc2cc(-c3cccc(OCc4ccccc4)c3)nn2c(-c2cc(F)c3c(c2C)CCCO3)c1C(OC(C)(C)C)C(=O)O (centres undefined) = 57
Cc1nc2cc(-c3cccc(-c4ccccc4)c3)nn2c(-c2cc(F)c3c(c2C)CCCO3)c1[C@H](OC(C)(C)C)C(=O)O = 73.3
COc1ccccc1-c1cccc(-c2cc3nc(C)c([C@H](OC(C)(C)C)C(=O)O)c(-c4cc(F)c5c(c4C)CCCO5)n3n2)c1 = 76.5
COc1ccc(-c2cccc(-c3cc4nc(C)c([C@H](OC(C)(C)C)C(=O)O)c(-c5cc(F)c6c(c5C)CCCO6)n4n3)c2)cn1 = 51.4
Cc1ccc(-c2cc3nc(C)c(C(OC(C)(C)C)C(=O)O)c(-c4cc(F)c5c(c4C)CCCO5)n3n2)cc1 (centres undefined) = 49.2
Cc1nc2cc(-c3cccc(-c4ccccc4)c3)nn2c(-c2cc(F)c3c(c2C)CCCO3)c1C(OC(C)(C)C)C(=O)O (racemic) = 65.2
Cc1nc2cc(-c3cccc(Oc4ccccc4)c3)nn2c(-c2cc(F)c3c(c2C)CCCO3)c1C(OC(C)(C)C)C(=O)O (centres undefined) = 47.2
Cc1nc2cc(-c3ccccc3)nn2c(-c2cc(F)c3c(c2C)CCCO3)c1C(OC(C)(C)C)C(=O)O (racemic) = 21.8
Cc1nc2cc(-c3cccc(OCc4ccccc4)c3)nn2c(N2CCC(C)(C)CC2)c1C(OC(C)(C)C)C(=O)O (centres undefined) = 37.5
Cc1ccccc1-c1cccc(-c2cc3nc(C)c([C@H](OC(C)(C)C)C(=O)O)c(-c4cc(F)c5c(c4C)CCCO5)n3n2)c1 = 47.1

(I) Cc1nc2cc(-c3cccc(-c4ccncc4)c3)nn2c(-c2cc(F)c3c(c2C)CCCO3)c1[C@H](OC(C)(C)C)C(=O)O
(II) Cc1nc2cc(-c3ccc(OCc4ccccc4)cc3)nn2c(-c2cc(F)c3c(c2C)CCCO3)c1C(OC(C)(C)C)C(=O)O (centres undefined)
(III) Cc1nc2cc(-c3ccccc3)nn2c(N2CCC(C)(C)CC2)c1C(OC(C)(C)C)C(=O)O (centres undefined)
// smallest Papp at 4 h, 100 µM at index 0, largest at the end Please, when replying, give the labels in the order that was requested.
II, I, III
(II: 31.3 ×10⁻⁶ cm/s, I: 48.8 ×10⁻⁶ cm/s, III: 70.3 ×10⁻⁶ cm/s)

###

Assay: Volume of distribution at steady state in Sprague-Dawley rat at 1 mg/kg, iv infusion for 10 mins or 5 mg/kg, po administered via gavage by LC-MS/MS analysis
Type: ADME, organism-based
Details: in vivo, read-out: Vdss
Value type: Vd (L/kg)

Cc1ccccc1-c1cccc(-c2cc3nc(C)c([C@H](OC(C)(C)C)C(=O)O)c(-c4cc(F)c5c(c4C)CCCO5)n3n2)c1 = 0.5

(P) COc1ccccc1-c1cccc(-c2cc3nc(C)c([C@H](OC(C)(C)C)C(=O)O)c(-c4cc(F)c5c(c4C)CCCO5)n3n2)c1
(Q) Cc1nc2cc(-c3cccc(-c4ccccc4F)c3)nn2c(-c2cc(F)c3c(c2C)CCCO3)c1[C@H](OC(C)(C)C)C(=O)O
When their Vd values are compared, which is larger, P or Q ? Give the label of your selection.
P
(P: 1.8 L/kg, Q: 0.7 L/kg)

###

Assay: Stability of the compound in human liver microsomes assessed as parent compound remaining at 0.5 uM measured after 10 mins in presence of NADPH by LC-MS/MS analysis
Type: ADME, Microsome
Conditions: read-out: Stability
Value type: remaining at 10 min, 0.5 µM (%)

Cc1nc2cc(-c3cccc(OCc4ccccc4)c3)nn2c(-c2cc(F)c3c(c2C)CCCO3)c1C(OC(C)(C)C)C(=O)O (centres undefined) = 72

(I) Cc1nc2cc(-c3cccc(-c4ccncc4)c3)nn2c(-c2cc(F)c3c(c2C)CCCO3)c1[C@H](OC(C)(C)C)C(=O)O
(II) Cc1nc2cc(-c3cccc(-c4ccccc4F)c3)nn2c(-c2cc(F)c3c(c2C)CCCO3)c1[C@H](OC(C)(C)C)C(=O)O
Given I and given II , which shows the smaller recorded remaining at 10 min, 0.5 µM? Give the label of your selection.
I
(I: 46%, II: 100%)

###

Experiment: AUC (0 to 24 hrs) in Sprague-Dawley rat at 1 mg/kg, iv infusion for 10 mins or 5 mg/kg, po administered via gavage by LC-MS/MS analysis
Assay type: ADME, organism-based
Conditions: in vivo
Value type: AUC(0-t) (µM·h)

Cc1ccccc1-c1cccc(-c2cc3nc(C)c([C@H](OC(C)(C)C)C(=O)O)c(-c4cc(F)c5c(c4C)CCCO5)n3n2)c1 = 6.3

(a) COc1ccccc1-c1cccc(-c2cc3nc(C)c([C@H](OC(C)(C)C)C(=O)O)c(-c4cc(F)c5c(c4C)CCCO5)n3n2)c1
(b) Cc1nc2cc(-c3cccc(-c4ccccc4F)c3)nn2c(-c2cc(F)c3c(c2C)CCCO3)c1[C@H](OC(C)(C)C)C(=O)O
Given a and given b , which shows the smaller recorded AUC(0-t)? Give the label of your selection.
a
